Values from patent US20260167703A1

- measured_target: DENV-4 E protein Domain III (Dengue virus serotype 4, strain Indonesia/1036/1976)
- protocol_notes: BLI, mAb on AR2G biosensor, 20 ug/mL Domain III, 1200 sec
measured_metric: Response (nm)
Number in nm, nothing else.

binder	reported
DENV4-7G4 (antibody, V domains shown) VH: QSVEESGGRLVTPGTPLTLTCTVSGFSLSSCAMTWVRQAPGKGLEWIGYIYVDSDTTYYASWAKGRFTISTTSTTVDLRITSPTTEDTATYFCARTTAYVGGGYGDDTFDPWGPGTLVTVSS VL: DVVMTQTPASVEAAVGGTVTINCQASQNINSYLSWYQQKPGQRPKLLIYRAFTLASGVSSRFKGSGSGTQFTLTISGVECADAATYYCQQGYSFSGVDNVFGGGTEVVVK	-0.001
DENV4-7D5 (antibody, V domains shown) VH: QSVEESGGRLVTPGTPLTLTCTVSGIDLSSWEMGWVRQAPGKGLEWIGIIFPSGTIYYANWAKGRFAISKASTTVDLKITSPTTEDTATYFCGRHGGSLYLNIWGPGTLVTVSL VL: AQVLTQTPSPVSAAVGGTVTINCQASQSVYVNRNLAWYQQKPGQPPKVLIYEASKLASGVPSRFKGSGSGTQFTLTISGVQCDDAATYYCQGEFGCSSADCIAFGGGTEVVVK	-0.007

Query: What value of Response (nm) has been reported for the following binder? DENV4-9G8 (antibody, V domains shown) VH: QSLEESGGGLVKPGASLTLTCTASGFSFSYRYWMSWVRQAPGKRPEWIACIDTGNGDTYYASRAKGRFTIMKTSSTTVTLQMTSLTVADTATYFCARSDVTLTGYGYGNLWGPGTLVTVSS VL: DSVMTQTPASVSEPVGGTVTINCQASHNIYNSLAWYQQKPGQPPKLLIYRASTLESGVPSRVKGSGYGTEYTLTISDLECADAATYYCQQYYGGDDDGFGFGGGTEVVVK
Response: 0.264
